Where do the numbers come from? From patent US9688764B2.

Below, each entry is listed alongside its reported Kd.
- TARGET_DESC: T1, hPRLR.mmh (soluble monomeric human PRLR) (Homo sapiens, UniProt P16471)
- T1 construct: soluble monomeric (hPRLR.mmh); mmh (myc-myc-hexahistidine)
- EXPERIMENT_SUMMARY: Surface plasmon resonance (Biacore T200), mAb-capture format
- Type: binding
- ASSAY_CONTEXT: 25° C., antibody-capture format, analyte hPRLR.mmh

molecule="H1H6975N: human IgG1 Fc form of H2M6975N; anti-PRLR; HCVR/LCVR SEQ ID NOs 370/378 (antibody, V domains shown, human IgG1 Fc) VH: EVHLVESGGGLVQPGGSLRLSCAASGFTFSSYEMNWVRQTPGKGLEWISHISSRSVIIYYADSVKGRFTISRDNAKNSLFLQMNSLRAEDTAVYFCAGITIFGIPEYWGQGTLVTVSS VL: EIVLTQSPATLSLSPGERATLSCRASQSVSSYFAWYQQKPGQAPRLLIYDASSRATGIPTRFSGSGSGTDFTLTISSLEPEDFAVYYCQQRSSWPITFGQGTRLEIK" value_reported="0.49 nM"
molecule="H1H6774P: anti-PRLR antibody, human IgG1 Fc; HCVR/LCVR SEQ ID NOs 34/42 (antibody, V domains shown, human IgG1 Fc) VH: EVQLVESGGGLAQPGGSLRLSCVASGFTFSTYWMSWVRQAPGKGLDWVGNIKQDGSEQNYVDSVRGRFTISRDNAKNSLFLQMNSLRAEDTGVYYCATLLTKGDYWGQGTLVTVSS VL: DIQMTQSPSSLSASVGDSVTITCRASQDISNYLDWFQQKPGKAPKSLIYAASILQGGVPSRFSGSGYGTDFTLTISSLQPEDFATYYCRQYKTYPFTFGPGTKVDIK" value_reported="1.14 nM"
molecule="H1H6960N: human IgG1 Fc form of H2M6960N; anti-PRLR; HCVR/LCVR SEQ ID NOs 322/330 (antibody, V domains shown, human IgG1 Fc) VH: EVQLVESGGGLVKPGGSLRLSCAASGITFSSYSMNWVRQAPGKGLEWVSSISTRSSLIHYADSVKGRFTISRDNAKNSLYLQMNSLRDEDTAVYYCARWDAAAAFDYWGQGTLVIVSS VL: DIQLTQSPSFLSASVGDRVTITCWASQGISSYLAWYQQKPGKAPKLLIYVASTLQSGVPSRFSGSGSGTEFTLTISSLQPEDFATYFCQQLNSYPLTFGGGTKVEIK" value_reported="6.74 nM"

Now for a further molecule.
// returns reported Kd for input H1H6804P: anti-PRLR antibody, human IgG1 Fc; HCVR/LCVR SEQ ID NOs 242/250 (antibody, V domains shown, human IgG1 Fc) VH: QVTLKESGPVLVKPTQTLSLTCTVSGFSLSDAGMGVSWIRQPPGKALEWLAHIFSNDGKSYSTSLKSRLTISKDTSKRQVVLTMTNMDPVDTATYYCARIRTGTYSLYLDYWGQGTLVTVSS VL: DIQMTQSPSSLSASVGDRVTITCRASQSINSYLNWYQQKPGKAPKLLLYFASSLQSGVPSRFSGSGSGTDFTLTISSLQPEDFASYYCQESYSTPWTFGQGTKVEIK
1.4 nM
